Value source: patent US12581252B2

molecular target: H1047R PIK3CA enzyme (Homo sapiens, UniProt P42336, H1047R); assay: ADP-Glo Biochemical PIK3CA Kinase Assay
Sequence (P42336 whole entry H1047R): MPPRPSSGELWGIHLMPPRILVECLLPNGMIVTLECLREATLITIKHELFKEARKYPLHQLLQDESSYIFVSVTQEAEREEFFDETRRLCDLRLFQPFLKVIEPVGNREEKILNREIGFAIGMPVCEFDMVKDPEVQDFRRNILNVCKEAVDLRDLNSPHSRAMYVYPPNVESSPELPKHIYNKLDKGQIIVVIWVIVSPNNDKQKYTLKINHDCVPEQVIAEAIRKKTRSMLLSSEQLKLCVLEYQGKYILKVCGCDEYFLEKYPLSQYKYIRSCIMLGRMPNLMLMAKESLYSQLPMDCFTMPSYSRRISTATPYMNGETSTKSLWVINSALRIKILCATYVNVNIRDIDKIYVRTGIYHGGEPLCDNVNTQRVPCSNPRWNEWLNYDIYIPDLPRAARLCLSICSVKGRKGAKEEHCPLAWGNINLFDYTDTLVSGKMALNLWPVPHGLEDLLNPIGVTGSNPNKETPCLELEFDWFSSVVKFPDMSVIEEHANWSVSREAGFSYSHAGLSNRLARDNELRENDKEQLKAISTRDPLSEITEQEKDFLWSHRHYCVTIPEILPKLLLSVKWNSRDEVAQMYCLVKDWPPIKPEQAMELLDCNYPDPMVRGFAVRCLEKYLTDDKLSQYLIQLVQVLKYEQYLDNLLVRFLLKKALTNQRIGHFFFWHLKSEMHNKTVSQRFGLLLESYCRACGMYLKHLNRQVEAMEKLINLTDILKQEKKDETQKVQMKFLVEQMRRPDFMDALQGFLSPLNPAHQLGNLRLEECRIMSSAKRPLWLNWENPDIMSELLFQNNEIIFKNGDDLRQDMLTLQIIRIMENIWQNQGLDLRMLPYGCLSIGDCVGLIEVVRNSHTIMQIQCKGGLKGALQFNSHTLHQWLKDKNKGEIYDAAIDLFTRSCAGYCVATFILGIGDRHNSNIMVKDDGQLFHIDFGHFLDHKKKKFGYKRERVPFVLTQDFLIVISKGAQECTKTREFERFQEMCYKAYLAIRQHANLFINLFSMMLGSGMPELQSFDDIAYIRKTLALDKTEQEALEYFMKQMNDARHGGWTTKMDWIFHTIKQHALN
Sequence (P27986 whole entry partner): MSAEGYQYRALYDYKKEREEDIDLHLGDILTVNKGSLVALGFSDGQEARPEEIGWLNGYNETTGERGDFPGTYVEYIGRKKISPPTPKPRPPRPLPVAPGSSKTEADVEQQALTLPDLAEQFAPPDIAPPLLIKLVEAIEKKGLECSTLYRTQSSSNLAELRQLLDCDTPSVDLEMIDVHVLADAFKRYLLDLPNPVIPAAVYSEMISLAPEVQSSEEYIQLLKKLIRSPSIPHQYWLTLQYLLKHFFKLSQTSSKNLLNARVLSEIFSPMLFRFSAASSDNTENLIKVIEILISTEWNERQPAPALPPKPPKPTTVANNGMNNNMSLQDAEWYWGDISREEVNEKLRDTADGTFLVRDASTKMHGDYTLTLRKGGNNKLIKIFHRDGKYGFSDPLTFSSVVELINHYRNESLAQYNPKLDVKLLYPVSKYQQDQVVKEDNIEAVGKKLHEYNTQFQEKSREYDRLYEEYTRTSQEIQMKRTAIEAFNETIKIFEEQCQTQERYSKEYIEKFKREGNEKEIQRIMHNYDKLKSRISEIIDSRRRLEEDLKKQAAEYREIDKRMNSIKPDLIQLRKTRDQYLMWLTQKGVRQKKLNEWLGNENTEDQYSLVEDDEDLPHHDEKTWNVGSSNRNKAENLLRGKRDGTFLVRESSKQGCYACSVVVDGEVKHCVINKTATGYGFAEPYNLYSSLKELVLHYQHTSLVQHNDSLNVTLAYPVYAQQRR

| compound | IC50 |
| --- | --- |
| CS(=O)(=O)Nc1cc(-c2ccc3ncnn3c2)cc2c1C(c1cc(F)ccc1Cl)NC2=O (stereo not shown) | 1 to 10 µM |
| O=C(Nc1ccc(F)cc1F)Nc1ccnc2c1C(c1ccccc1Cl)NC2=O (stereo not shown) | 1 to 10 µM |
| O=C(Nc1cccc2c1C(c1cc(O)ccc1Cl)NC2=O)c1cc(O)cc(C(F)(F)F)c1 (stereo not shown) | 10 to 100 µM |
| O=C1NC(c2cc(F)ccc2Cl)c2c(NC(=O)c3cc(C(F)(F)F)cc(F)c3C3(O)COC3)cccc21 (stereo not shown) | 1 to 10 µM |
| O=C(Nc1cc(Nc2cn[nH]c2)cc2c1[C@@H](c1cc(F)ccc1Cl)NC2=O)c1cc(F)cc(C(F)(F)F)c1 | 1 to 10 µM |
| Cc1ccccc1C1NC(=O)c2cccc(NC(=O)c3cnc(OC(C)C)c(F)c3)c21 (stereo not shown) | 10 to 100 µM |
| O=C(Nc1cccc2c1C(c1ccccc1C1COC1)NC2=O)c1cc(F)cc(C(F)(F)F)c1 (stereo not shown) | 10 to 100 µM |

====

target: H1047R PIK3CA enzyme (Homo sapiens, UniProt P42336, H1047R); assay: ADP-Glo Biochemical PIK3CA Kinase Assay
Reported IC50 values for a set of compounds

| compound | IC50 |
| --- | --- |
| CN(C)S(=O)(=O)n1nccc1-c1cc(NC(=O)c2cc(F)cc(C(F)(F)F)c2)c2c(c1)C(=O)N[C@@H]2c1cc(F)ccc1Cl | 0.5 to 1 µM |
| O=C(Nc1cc(N2CCC(F)(F)CC2)nc2c1C(c1cc(F)ccc1Cl)NC2=O)c1cc(F)cc(C(F)(F)F)c1 (stereo not shown) | ≤ 0.1 µM |
| O=C(Nc1cc(Br)cc2c1[C@@H](c1cccc(F)c1F)NC2=O)c1cc(F)cc(C(F)(F)F)c1 | 1 to 10 µM |
| O=C(Nc1cc(-c2ccc[nH]c2=O)cc2c1C(c1cc(F)ccc1Cl)NC2=O)c1cc(F)cc(C(F)(F)F)c1 (stereo not shown) | ≤ 0.1 µM |
| O=C(Nc1cc(OC[C@H]2CCO2)cc2c1[C@H](c1cc(F)ccc1Cl)NC2=O)c1cc(F)cc(C(F)(F)F)c1 (single isomer, unassigned) | ≤ 0.1 µM |
| Cc1ccccc1C1NC(=O)c2cccc(NC(=O)c3coc4cc(F)ccc34)c21 (stereo not shown) | 0.5 to 1 µM |
| Cn1ccc2ccc(C(=O)Nc3cc(Br)cc4c3C(c3cc(F)ccc3Cl)NC4=O)cc21 (stereo not shown) | 1 to 10 µM |

====

target: H1047R PIK3CA enzyme (Homo sapiens, UniProt P42336, H1047R); assay: ADP-Glo Biochemical PIK3CA Kinase Assay

| compound | system | IC50 |
| --- | --- | --- |
| O=C1NC(c2cc(F)ccc2Cl)c2c(NC(=O)c3csc4ccccc34)cc(Br)cc21 (stereo not drawn) [Compound I-626] | H1047R PIK3CA enzyme (Homo sapiens, UniProt P42336, H1047R) | ≤ 100 nM |
| CC(C)(O)CNc1cc(NC(=O)c2cc(F)cc(C(F)(F)F)c2)c2c(c1)C(=O)NC2c1cc(F)ccc1Cl (stereo not drawn) [Compound I-730] | H1047R PIK3CA enzyme (Homo sapiens, UniProt P42336, H1047R) | ≤ 100 nM |
| O/N=C(\Nc1cccc2c1C(c1cc(F)ccc1Cl)NC2=S)c1cc(F)cc(C(F)(F)F)c1 (stereo not drawn) [Compound I-846] | H1047R PIK3CA enzyme (Homo sapiens, UniProt P42336, H1047R) | 500 to 1000 nM |
| Nc1cc(NC(=O)N2C[C@H](O)c3cc(F)ccc32)c2c(c1)C(=O)N[C@@H]2c1cc(F)ccc1Cl (single isomer, unassigned) [Compound I-2412] | H1047R PIK3CA enzyme (Homo sapiens, UniProt P42336, H1047R) | 1000 to 10000 nM |
| O=C1N[C@@H](c2cc(F)ccc2Cl)c2c(NC(=O)N3C[C@](O)(C(F)(F)F)c4cc(F)ccc43)cc(-n3ccccc3=O)cc21 (single isomer, unassigned) [Compound I-2529] | H1047R PIK3CA enzyme (Homo sapiens, UniProt P42336, H1047R) | 1000 to 10000 nM |
| Cn1ccc(-c2cc(NC(=O)c3cc(F)cc(C(F)(F)F)c3)c3c(c2)C(=O)NC3c2cc(F)ccc2Cl)cc1=O (stereo not drawn) [Compound I-889] | H1047R PIK3CA enzyme (Homo sapiens, UniProt P42336, H1047R) | ≤ 100 nM |

====

target: H1047R PIK3CA enzyme (Homo sapiens, UniProt P42336, H1047R); test: ADP-Glo Biochemical PIK3CA Kinase Assay
pIC50: −log10 of the molar value.
Reported pIC50 values for a set of compounds
reported metric: pIC50

| compound | reported result |
| --- | --- |
| O=C(Nc1cc(-c2ccc3ncnn3c2)cc2c1C(c1cc(F)ccc1Cl)NC2=O)C(=NO)c1ccccc1 (centres unmarked) | 4.00 to 5.00 |
| O=C(Nc1cc(-c2ccnn2C2COC2)cc2c1C(c1cc(F)ccc1Cl)NC2=O)c1cc(F)cc(C(F)(F)F)c1 (centres unmarked) | ≥ 7.00 |
| CC(=O)Cc1cc(NC(=O)c2cc(F)cc(C(F)(F)F)c2)c2c(c1)C(=O)N[C@H]2c1cc(F)ccc1Cl | 6.30 to 7.00 |
| O=C1N[C@H](c2cc(F)ccc2Cl)c2c(NC(=O)N3C[C@H](O)c4cc(F)ccc43)cc(-n3ccccc3=O)cc21 (single isomer, unassigned) | 5.00 to 6.00 |
| CC(C)(O)C#Cc1cc(NC(=O)c2cc(F)cc(C(F)(F)F)c2)c2c(c1)C(=O)NC2c1cc(F)ccc1Cl (centres unmarked) | ≥ 7.00 |
| CC(C)(O)c1cc(NC(=O)c2coc3c(F)cc(F)cc23)c2c(c1)C(=O)NC2c1cc(F)ccc1C(F)F (centres unmarked) | ≥ 7.00 |
| O=C1NCC(c2cc(NC(=O)c3cc(F)cc(C(F)(F)F)c3)c3c(c2)C(=O)NC3c2cc(F)ccc2Cl)O1 (centres unmarked) | ≥ 7.00 |
| O=C(Nc1cccc2c1C(N1CCC(F)(F)CC1)NC2=O)c1cc(F)cc(C(F)(F)F)c1 (centres unmarked) | 5.00 to 6.00 |
| O=C1NC(c2cc(F)ccc2C(F)F)c2c(NC(=O)N3CC(O)c4cc(F)ccc43)cc(Br)cc21 (centres unmarked) | ≥ 7.00 |
| O=C1NC(c2cc(F)ccc2Cl)c2c(C#Cc3ccccc3)cccc21 (centres unmarked) | 4.00 to 5.00 |
| CS(=O)(Cc1cc(NC(=O)c2cc(F)cc(C(F)(F)F)c2)c2c(c1)C(=O)NC2c1cc(F)ccc1Cl)=Nc1ccccc1 (centres unmarked) | ≥ 7.00 |
| O=C(NCCC(O)CO)c1cc(NC(=O)c2cc(F)cc(C(F)(F)F)c2)c2c(c1)C(=O)NC2c1cc(F)ccc1Cl (centres unmarked) | ≥ 7.00 |
| O=C1NC(c2cc(F)ccc2Cl)c2c(Nc3nc4ccccc4s3)cc(-c3ccc4ncnn4c3)cc21 (centres unmarked) | 6.30 to 7.00 |
| Cc1nc2ccc(-c3cc(NC(=O)c4cc(F)cc(C(F)(F)F)c4)c4c(c3)C(=O)NC4c3cc(F)ccc3Cl)cn2n1 (centres unmarked) | ≥ 7.00 |
| O=C1NC(c2cc(F)ccc2Cl)c2c(COc3ccccc3)cc(-c3ccc4ncnn4c3)cc21 (centres unmarked) | 4.00 to 5.00 |
| O=C1N[C@@H](c2cc(F)ccc2Cl)c2c(NC(=O)N3C[C@H](C(F)F)c4ccccc43)cccc21 (single isomer, unassigned) | 5.00 to 6.00 |
| O=C1N[C@@H](c2cc(F)ccc2Cl)c2c(Nc3cn[nH]c3)cc(Br)cc21 | 4.00 to 5.00 |
| O=C(Nc1cc(-c2cnc(OC3CC3)nc2)cc2c1C(c1cc(F)ccc1Cl)NC2=O)c1cc(F)cc(C(F)(F)F)c1 (centres unmarked) | ≥ 7.00 |
| Cc1ccccc1C1NC(=O)c2c(C(N)=O)ncc(NC(=O)c3cc(F)cc(C(F)(F)F)c3)c21 (centres unmarked) | 6.30 to 7.00 |
| O=C(Nc1cc(Nc2cn[nH]c2)cc2c1[C@H](c1cc(F)ccc1Cl)NC2=O)c1cc(F)cc(C(F)(F)F)c1 | ≥ 7.00 |
| O=C1N[C@@H](c2cc(F)ccc2Cl)c2c(NC(=O)N3C[C@@](O)(C(F)(F)F)c4cc(F)ccc43)ccc(-n3nccn3)c21 (single isomer, unassigned) | 5.00 to 6.00 |
| O=C(Nc1cc(-c2ccc3ncnn3c2)cc2c1[C@H](c1cc(F)ccc1Cl)NC2=O)c1cc(F)cc(C(F)F)c1 (stereo in doubt) | 6.30 to 7.00 |
| O=C1NC(c2cc(F)ccc2Cl)c2c(NC(=O)N3CC(=O)N4CCCC4C3)cc(Br)cc21 (centres unmarked) | 4.00 to 5.00 |
| O=C1N[C@H](c2cc(F)ccc2Cl)c2c(NC(=O)N3C[C@H](CO)[C@@H](C(F)(F)F)C3)cccc21 (single isomer, unassigned) | 4.00 to 5.00 |
| Cc1ccccc1C1NC(=O)c2c(C(=O)NCC(F)F)ccc(NC(=O)c3nsc4ccccc34)c21 (centres unmarked) | ≥ 7.00 |
| CNC(=O)c1cc(NC(=O)c2nsc3ccccc23)c2c(c1)C(=O)NC2c1ccccc1C (centres unmarked) | ≥ 7.00 |
